Target: GST-Dm-Relish (Drosophila melanogaster, UniProt Q94527 99-473)
Sequence: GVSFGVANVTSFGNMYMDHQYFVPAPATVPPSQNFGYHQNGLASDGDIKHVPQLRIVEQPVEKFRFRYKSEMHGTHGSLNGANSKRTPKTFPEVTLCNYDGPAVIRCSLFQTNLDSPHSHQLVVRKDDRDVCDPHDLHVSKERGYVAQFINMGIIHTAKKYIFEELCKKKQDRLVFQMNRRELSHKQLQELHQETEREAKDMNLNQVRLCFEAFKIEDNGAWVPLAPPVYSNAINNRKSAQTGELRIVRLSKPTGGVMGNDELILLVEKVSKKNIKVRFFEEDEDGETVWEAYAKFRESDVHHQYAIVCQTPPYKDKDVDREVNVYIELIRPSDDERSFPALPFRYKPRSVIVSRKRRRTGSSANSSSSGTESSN
Test: protein-binding microarray (PBM); PBM: ~300 nM protein, 6 mM HEPES pH 7.8, 80 mM KCl, 0.5 mM EDTA, 0.5 mM EGTA, 6% glycerol, 35 ng/ul poly-dIdC, 1% milk, 1 h, room temperature; high values mean tight binding
Details: dsDNA, one strand shown
Assay Readout: binding signal (z-score)

CCGATTAACATCAAAACACCCCTTGATGTTAATCGGGTCTTGATTCGCTTGACGCTGCTG	4.19
CCGATTAACATCAAGGATTTTCCTGATGTTAATCGGGTCTTGATTCGCTTGACGCTGCTG	1.44
CCGATTAACATCACATTTTCCCCTGATGTTAATCGGGTCTTGATTCGCTTGACGCTGCTG	3.97
CCGATTAACATCAGGGCTTCCCCTGATGTTAATCGGGTCTTGATTCGCTTGACGCTGCTG	10.4
CCGATTAACATCACCCGATTCCCTGATGTTAATCGGGTCTTGATTCGCTTGACGCTGCTG	1.62
CCGATTAACATCAGGATTGTCCCTGATGTTAATCGGGTCTTGATTCGCTTGACGCTGCTG	1.57
CCGATTAACATCACGGGAATACCTGATGTTAATCGGGTCTTGATTCGCTTGACGCTGCTG	6.3
CCGATTAACATCAGGGATTACCCTGATGTTAATCGGGTCTTGATTCGCTTGACGCTGCTG	9.47
CCGATTAACATCACTCATCCCCGTGATGTTAATCGGGTCTTGATTCGCTTGACGCTGCTG	2.33
CCGATTAACATCAATATTCCCCCTGATGTTAATCGGGTCTTGATTCGCTTGACGCTGCTG	6.05
CCGATTAACATCAACGGGAACTCTGATGTTAATCGGGTCTTGATTCGCTTGACGCTGCTG	1.77
CCGATTAACATCAGATCCCCCCCTGATGTTAATCGGGTCTTGATTCGCTTGACGCTGCTG	5.21
CCGATTAACATCACGCAATTCCCTGATGTTAATCGGGTCTTGATTCGCTTGACGCTGCTG	1.52

###

Target: GST-Nv-NF-kB (Ser allele) (Nematostella vectensis, UniProt A7UNT2 2-411)
Sequence: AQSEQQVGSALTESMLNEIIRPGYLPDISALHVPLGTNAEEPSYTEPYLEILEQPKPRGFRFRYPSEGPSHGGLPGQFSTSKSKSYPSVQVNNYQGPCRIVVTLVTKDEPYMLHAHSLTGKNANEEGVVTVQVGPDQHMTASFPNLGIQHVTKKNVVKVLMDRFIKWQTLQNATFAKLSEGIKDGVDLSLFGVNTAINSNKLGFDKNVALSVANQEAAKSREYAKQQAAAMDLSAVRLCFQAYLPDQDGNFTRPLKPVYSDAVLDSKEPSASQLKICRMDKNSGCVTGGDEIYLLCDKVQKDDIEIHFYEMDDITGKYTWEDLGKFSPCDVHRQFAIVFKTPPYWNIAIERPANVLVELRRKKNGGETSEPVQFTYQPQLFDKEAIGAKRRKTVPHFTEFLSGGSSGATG
Assay: protein-binding microarray (PBM); PBM: ~300 nM protein, 6 mM HEPES pH 7.8, 80 mM KCl, 0.5 mM EDTA, 0.5 mM EGTA, 6% glycerol, 35 ng/ul poly-dIdC, 1% milk, 1 h, room temperature; Ap Aiptasia and Nv Nematostella (sea anemones) / Co Capsaspora / Aq Amphimedon (sponge) / Dm Drosophila / Hu human; RHD is the Rel homology domain; high values mean tight binding
Settings: dsDNA, one strand shown
Assay Readout: binding signal (z-score)

CCGATTAACATCAAGGGGTTTCCTGATGTTAATCGGGTCTTGATTCGCTTGACGCTGCTG	4.08
CCGATTAACATCAAAATTTTTCCTGATGTTAATCGGGTCTTGATTCGCTTGACGCTGCTG	1.42
CCGATTAACATCAAGAATTTTCCTGATGTTAATCGGGTCTTGATTCGCTTGACGCTGCTG	1.03
CCGATTAACATCAGGATTACCCCTGATGTTAATCGGGTCTTGATTCGCTTGACGCTGCTG	3.63
CCGATTAACATCAAGGGAACTCCTGATGTTAATCGGGTCTTGATTCGCTTGACGCTGCTG	1.27
CCGATTAACATCAATTTATCCCCTGATGTTAATCGGGTCTTGATTCGCTTGACGCTGCTG	7.39
CCGATTAACATCACAGTCCCCCCTGATGTTAATCGGGTCTTGATTCGCTTGACGCTGCTG	5.18
CCGATTAACATCAAGGAAGTCCCTGATGTTAATCGGGTCTTGATTCGCTTGACGCTGCTG	5.82
CCGATTAACATCACGGGTTTTCCTGATGTTAATCGGGTCTTGATTCGCTTGACGCTGCTG	1.9
CCGATTAACATCAAGTTCCCCCATGATGTTAATCGGGTCTTGATTCGCTTGACGCTGCTG	6.97
CCGATTAACATCAAAAACTTCCCTGATGTTAATCGGGTCTTGATTCGCTTGACGCTGCTG	6.81
CCGATTAACATCAGGGGAATGTATGATGTTAATCGGGTCTTGATTCGCTTGACGCTGCTG	8.56
CCGATTAACATCAGGTAATATATTGATGTTAATCGGGTCTTGATTCGCTTGACGCTGCTG	2.14
CCGATTAACATCAGGGGAAGATATGATGTTAATCGGGTCTTGATTCGCTTGACGCTGCTG	7.91
CCGATTAACATCAAGGATTCCCCTGATGTTAATCGGGTCTTGATTCGCTTGACGCTGCTG	10
CCGATTAACATCAAGATACCCCCTGATGTTAATCGGGTCTTGATTCGCTTGACGCTGCTG	5.25
CCGATTAACATCAAATTTCCCATTGATGTTAATCGGGTCTTGATTCGCTTGACGCTGCTG	4.27
CCGATTAACATCAACCCCCCCCTTGATGTTAATCGGGTCTTGATTCGCTTGACGCTGCTG	3.93
CCGATTAACATCAGGGCTTCCCCTGATGTTAATCGGGTCTTGATTCGCTTGACGCTGCTG	8.58
CCGATTAACATCAACAAAATCCCTGATGTTAATCGGGTCTTGATTCGCTTGACGCTGCTG	3.66
CCGATTAACATCAAATTCCCCCGTGATGTTAATCGGGTCTTGATTCGCTTGACGCTGCTG	9.58
CCGATTAACATCAAGGGGAAAACTGATGTTAATCGGGTCTTGATTCGCTTGACGCTGCTG	11
CCGATTAACATCAGGGGGAACCCTGATGTTAATCGGGTCTTGATTCGCTTGACGCTGCTG	7.25
CCGATTAACATCAAAAATACCCATGATGTTAATCGGGTCTTGATTCGCTTGACGCTGCTG	6.31
CCGATTAACATCAAAGTTTTCCCTGATGTTAATCGGGTCTTGATTCGCTTGACGCTGCTG	7.61
CCGATTAACATCAGGATTTTCCCTGATGTTAATCGGGTCTTGATTCGCTTGACGCTGCTG	7.34
CCGATTAACATCAATTGGGAAAATGATGTTAATCGGGTCTTGATTCGCTTGACGCTGCTG	4.08
CCGATTAACATCAAATTTCCCGGTGATGTTAATCGGGTCTTGATTCGCTTGACGCTGCTG	4.8
CCGATTAACATCAGGGCAACCCCTGATGTTAATCGGGTCTTGATTCGCTTGACGCTGCTG	1.13
CCGATTAACATCAGTGGGAAAAATGATGTTAATCGGGTCTTGATTCGCTTGACGCTGCTG	4.53
CCGATTAACATCAGGGGATTGCATGATGTTAATCGGGTCTTGATTCGCTTGACGCTGCTG	6.93
CCGATTAACATCAGGGACTTTTATGATGTTAATCGGGTCTTGATTCGCTTGACGCTGCTG	9.79
CCGATTAACATCAGGGAGACCCCTGATGTTAATCGGGTCTTGATTCGCTTGACGCTGCTG	1.04
